Record form. Attribute: GI50. Fill in for each entry.
System: OVCAR-4
test name: NCI tumour cell line growth inhibition, 48 h
Calls of active or inactive are those of the source. Rule as the data show it: active = GI50 up to about 1.1 µM and inactive = higher.

So for CCc1cccc(C)c1NC(=O)C(=O)CC(=O)c1ccc(Cl)s1 , the logged GI50 turned out to be > 100 µM (inactive)

So for Cn1c2ccc(F)cc2c2ccc3c(c21)C(=O)C=CC3=O , the logged GI50 turned out to be 5.14 µM (inactive)

So for O=c1c2cc([N+](=O)[O-])ccc2[nH]n1Cc1ccccn1 , the logged GI50 turned out to be > 100 µM (inactive)

So for C/C(=N\NC(=S)N1CCN(c2ccccn2)CC1)c1nccs1 , the logged GI50 turned out to be 1.03 µM (active)

So for CC(=O)OC1CC2CC(=O)CC1N2C (stereo unspecified) , the logged GI50 turned out to be > 100 µM (inactive)

So for COC(=O)c1ccccc1C1CN=NC12Cc1cc3c(cc1C2=O)CCC3 (stereo unspecified) , the logged GI50 turned out to be 44.6 µM (inactive)

###

System: NCI/ADR-RES
test name: NCI tumour cell line growth inhibition, 48 h
Calls of active or inactive are those of the source. Rule as the data show it: active = GI50 up to about 1.1 µM and inactive = higher.
Thanks in advance; please answer with one of these: 1.0 for active, 0.0 for inactive

Lookup: Record request — test call for NC1=C(N2CCCCC2)C(=O)NC2=N/C(=C\c3ccccc3)C(=O)N21
Found: 0.0

Lookup: Record request — test call for O=C1C(=O)N(C2CCCCC2)C(=S)N1C1CCCCC1
Found: 0.0

Lookup: Record request — test call for O=C(Nc1ccc(Cl)cc1Cl)C1C(=O)OC2(CCCCC2)OC1=O
Found: 0.0

Lookup: Record request — test call for CC(SC(=S)N1CCCCC1)C(=O)Nc1nnc(-c2ccc(Cl)cc2)o1 (stereo not given)
Found: 0.0

Lookup: Record request — test call for O=C1NCN(c2ccccc2)C12CCN(CCCN1CCN(CCOC(c3ccccc3)c3ccccc3)CC1)CC2
Found: 0.0

Lookup: Record request — test call for Cn1c2ccc(F)cc2c2ccc3c(c21)C(=O)C=CC3=O
Found: 0.0

Lookup: Record request — test call for CC(=O)Nc1[nH]c(C#N)nc1C#N
Found: 0.0

Lookup: Record request — test call for Nc1nnc2oc3ccc4ccccc4c3cc1-2
Found: 0.0

Lookup: Record request — test call for CCN(CC)CCN1C=CC(C)C(C(=O)O)C1C(N)=O (stereo not given)
Found: 0.0

Lookup: Record request — test call for COc1c(OC)c(OC)c2c(c1OC)c(=O)c1ccccc1n2C [MELICOPICINE]
Found: 0.0

Lookup: Record request — test call for COc1ccccc1NC(=O)C(=O)C(C#N)CC(C)(C)C=O (stereo not given)
Found: 0.0

Lookup: Record request — test call for CC1(C)CN=C(Nc2ccc(F)c(Cl)c2)S1
Found: 0.0

Lookup: Record request — test call for COC1C(O)=C2C(=O)OC(C)(O)/C=C/C=C\C=C/C=C/C(c3ccccc3)NC(=O)/C=C/C=C/C=C/C=C/C2(C)C1O (stereo not given)
Found: 1.0

Lookup: Record request — test call for Cc1cc2[nH]c3c(C#N)c(-c4ccccc4)c(/N=N/c4cccc(C(F)(F)F)c4)c(=O)n3c2cc1C
Found: 0.0

Lookup: Record request — test call for COC(=O)/C=C\S/C(=C(/c1ccccc1)n1ccc(C(=O)OC)n1)c1ccccc1
Found: 0.0

Lookup: Record request — test call for COc1ccc2/c(=C/c3ccc(N(C)C)cc3)c3cc(-c4ccccc4)[n+](C)n3c2c1
Found: 0.0

Lookup: Record request — test call for O=C1CCCC2=C1CC1=C(CCCC1=O)N2c1ccc([N+](=O)[O-])cc1
Found: 0.0

Lookup: Record request — test call for COC(C)(C)OCCN1CCN(CCN2C3=C(C=C(C(C)=O)C3)Sc3ccccc32)CC1
Found: 0.0

Lookup: Record request — test call for COc1ccc(N2C(=O)C3c4[nH]c5ccc(C)cc5c4C4CCC(C)CC4C3C2=O)cc1 (stereo not given)
Found: 0.0

Lookup: Record request — test call for CC(C)=CCC/C(C)=C/CC/C(C)=C/CC/C(C=O)=C/CC/C(C)=C\CC/C(C)=C/CC/C(C)=C/CC/C(C)=C/CC1=CC(=O)C=CC1=O
Found: 0.0

// provenance: ChEMBL document CHEMBL1201862
